target: SHP2 (Homo sapiens, UniProt Q06124); assay: SHP2 allosteric inhibitor enzyme activity assay (DiFMUP fluorescence); assay type: biochemical; details: class symbols
Sequence (Q06124 whole entry): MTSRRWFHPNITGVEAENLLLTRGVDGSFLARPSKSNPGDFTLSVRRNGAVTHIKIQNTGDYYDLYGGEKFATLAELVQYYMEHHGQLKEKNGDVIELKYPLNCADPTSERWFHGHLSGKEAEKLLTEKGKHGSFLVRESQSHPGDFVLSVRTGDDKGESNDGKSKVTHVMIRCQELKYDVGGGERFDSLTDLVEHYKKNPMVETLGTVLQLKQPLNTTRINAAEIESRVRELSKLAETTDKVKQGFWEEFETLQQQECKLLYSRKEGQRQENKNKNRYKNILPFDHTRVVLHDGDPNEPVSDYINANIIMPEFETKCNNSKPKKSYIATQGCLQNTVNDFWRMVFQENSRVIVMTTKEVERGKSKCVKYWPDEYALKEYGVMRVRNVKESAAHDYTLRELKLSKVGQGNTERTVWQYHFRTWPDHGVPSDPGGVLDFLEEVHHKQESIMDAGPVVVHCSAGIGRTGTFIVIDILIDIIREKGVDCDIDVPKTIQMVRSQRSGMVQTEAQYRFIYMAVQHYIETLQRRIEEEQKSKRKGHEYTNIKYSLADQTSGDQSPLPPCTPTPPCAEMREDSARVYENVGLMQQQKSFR
pIC50: −log10 of the molar value.
experimental_endpoint: pIC50

[[record]]
entry_smiles = "N[C@@H]1c2ccccc2CC12CCN(c1nc3[nH]nc(C4(c5nncs5)CC4)c3c(=O)[nH]1)CC2"
meas_value = "≥ 7.70"

[[record]]
entry_smiles = "N[C@@H]1c2ccccc2CC12CCN(c1nc3[nH]nc(C4=CCc5ccccc54)c3c(=O)[nH]1)CC2"
meas_value = "≥ 7.70"

[[record]]
entry_smiles = "CC1(C)C=C(c2n[nH]c3nc(N4CCC5(CC4)Cc4ccccc4[C@H]5N)[nH]c(=O)c23)c2ccc(C(F)(F)F)nc2C1"
meas_value = "≥ 7.70"

[[record]]
entry_smiles = "CN1CC2(C=C(c3n[nH]c4nc(N5CCC6(CC5)Cc5ccccc5[C@H]6N)[nH]c(=O)c34)c3ccccc32)C1"
meas_value = "≥ 7.70"

[[record]]
entry_smiles = "CN1c2ccccc2C(c2n[nH]c3nc(N4CCC5(CC4)Cc4ccccc4[C@H]5N)[nH]c(=O)c23)=CS1(=O)=O"
meas_value = "≥ 7.70"

[[record]]
entry_smiles = "Cn1cc2c(n1)CC(C)(C)C=C2c1n[nH]c2nc(N3CCC4(CC3)Cc3ccccc3[C@H]4N)[nH]c(=O)c12"
meas_value = "≥ 7.70"

[[record]]
entry_smiles = "C[C@@H]1OCC2(CCN(c3nc4[nH]nc(C5(c6ccncn6)CC5)c4c(=O)[nH]3)CC2)[C@@H]1N"
meas_value = "7.22 to 7.70"

[[record]]
entry_smiles = "N[C@@H]1c2ccccc2CC12CCN(c1nc3[nH]nc(C4(c5ccncc5F)CC4)c3c(=O)[nH]1)CC2"
meas_value = "≥ 7.70"

[[record]]
entry_smiles = "N[C@@H]1c2ccccc2CC12CCN(c1cnc3c([C@H]4C[C@H]4c4ccccc4)n[nH]c3n1)CC2"
meas_value = "≥ 7.70"


As a next step, examine the compound that follows.
Query N[C@@H]1COCC12CCN(c1nc3[nH]nc(C4(c5ccccc5)CC4)c3c(=O)[nH]1)CC2 yields pIC50 of 7.22 to 7.70
